System: EKVX
assay text: relative viability (nuclei count vs DMSO), 5 days (fraction); higher = more cells survive
run parameters: first compound 2.53 µM
relative viability strictly less than 0.8 = Met. Otherwise Not met.

compound	group
COc1nc(C)cnc1NS(=O)(=O)c1cccnc1-c1ccc(-c2nnco2)cc1 [Zibotentan] + O=C(c1cc(Cc2n[nH]c(=O)c3ccccc23)ccc1F)N1CCN(C(=O)C2CC2)CC1 [Olaparib] (partner 8 µM)	Not met

Task item: Strictly below 0.8 in relative viability? COc1nc(C)cnc1NS(=O)(=O)c1cccnc1-c1ccc(-c2nnco2)cc1 [Zibotentan] + COc1cccc2cc(-c3nc([C@H]4CC[C@H](C(=O)O)CC4)n4ncnc(N)c34)[nH]c12 [OSI-027] (partner 0.5 µM)
Reply: Met

Task item: Lab log: compare recorded relative viability with 0.8; is it strictly lower for O=c1cc(-c2cccc3c2Sc2ccccc2S3)oc(N2CCOCC2)c1 + Cc1nc(Nc2ncc(C(=O)Nc3c(C)cccc3Cl)s2)cc(N2CCN(CCO)CC2)n1 [Dasatinib] (partner 0.075 µM) ?
Reply: Met

Task item: Is relative viability strictly under 0.8 for the entry COc1nc(C)cnc1NS(=O)(=O)c1cccnc1-c1ccc(-c2nnco2)cc1 [Zibotentan] + CC(=O)Nc1cccc(-n2c(=O)n(C3CC3)c(=O)c3c(Nc4ccc(I)cc4F)n(C)c(=O)c(C)c32)c1 [Trametinib] (partner 0.02 µM) ?
Reply: Met

Task item: Please determine if O=c1cc(-c2cccc3c2Sc2ccccc2S3)oc(N2CCOCC2)c1 + Cc1nc(NC(=O)N2CCC[C@H]2C(N)=O)sc1-c1ccnc(C(C)(C)C(F)(F)F)c1 [Alpelisib] (partner 2 µM) is below 0.8 in terms of relative viability.
Reply: Not met

###

Could you please report measured relative viability for the items listed next?
System: LU99A
assay text: relative viability (nuclei count vs DMSO), 5 days (fraction); higher = more cells survive
run parameters: first compound 0.1 µM
One number for each entry.

compound	measurement target	recorded measurement
CCN(CC)CCCCNc1ncc2cc(-c3cc(OC)cc(OC)c3)c(NC(=O)NC(C)(C)C)nc2n1 + Cc1nc(NC(=O)N2CCC[C@H]2C(N)=O)sc1-c1ccnc(C(C)(C)C(F)(F)F)c1 [Alpelisib] (partner 2 µM)	LU99A	0.55
CCN(CC)CCCCNc1ncc2cc(-c3cc(OC)cc(OC)c3)c(NC(=O)NC(C)(C)C)nc2n1 + CC(C)C[C@H](NC(=O)[C@H](Cc1ccccc1)NC(=O)c1cnccn1)B(O)O [Bortezomib] (partner 0.002 µM)	LU99A	1.34
CCN(CC)CCCCNc1ncc2cc(-c3cc(OC)cc(OC)c3)c(NC(=O)NC(C)(C)C)nc2n1 + O=C(CCCCCCC(=O)Nc1ccccc1)NO [Vorinostat] (partner 1 µM)	LU99A	0.541
O=c1cc(N2CCOCC2)oc2c(-c3cccc4c3sc3ccccc34)cccc12 + CC(=O)c1c(C)c2cnc(Nc3ccc(N4CCNCC4)cn3)nc2n(C2CCCC2)c1=O [Palbociclib] (partner 0.5 µM)	LU99A	0.414
O=c1cc(N2CCOCC2)oc2c(-c3cccc4c3sc3ccccc34)cccc12 + CC(C)C[C@H](NC(=O)[C@H](Cc1ccccc1)NC(=O)c1cnccn1)B(O)O [Bortezomib] (partner 0.002 µM)	LU99A	1.19

Hi team, please reply with relative viability for each item in this list.
1. O=c1cc(N2CCOCC2)oc2c(-c3cccc4c3sc3ccccc34)cccc12 + O=C(CCCCCCC(=O)Nc1ccccc1)NO [Vorinostat] (partner 1 µM)
2. O=c1cc(N2CCOCC2)oc2c(-c3cccc4c3sc3ccccc34)cccc12 + CCNC(=O)c1noc(-c2cc(C(C)C)c(O)cc2O)c1-c1ccc(CN2CCOCC2)cc1 [Luminespib] (partner 0.01 µM)
3. O=c1cc(N2CCOCC2)oc2c(-c3cccc4c3sc3ccccc34)cccc12 + Cc1cc(Nc2cc(N3CCN(C)CC3)nc(Sc3ccc(NC(=O)C4CC4)cc3)n2)n[nH]1 [Tozasertib] (partner 0.1 µM)

Reply:
1: 0.446; 2: 0.232; 3: 0.273

Could I get relative viability for every one of these entries?
1. CCN(CC)CCCCNc1ncc2cc(-c3cc(OC)cc(OC)c3)c(NC(=O)NC(C)(C)C)nc2n1 + Cc1cc(Nc2cc(N3CCN(C)CC3)nc(Sc3ccc(NC(=O)C4CC4)cc3)n2)n[nH]1 [Tozasertib] (partner 0.1 µM)
2. CCN(CC)CCCCNc1ncc2cc(-c3cc(OC)cc(OC)c3)c(NC(=O)NC(C)(C)C)nc2n1 + CC1(C)CCC(c2ccc(Cl)cc2)=C(CN2CCN(c3ccc(C(=O)NS(=O)(=O)c4ccc(N[C@H](CCN5CCOCC5)CSc5ccccc5)c(S(=O)(=O)C(F)(F)F)c4)cc3)CC2)C1 [Navitoclax] (partner 0.5 µM)
3. CCN(CC)CCCCNc1ncc2cc(-c3cc(OC)cc(OC)c3)c(NC(=O)NC(C)(C)C)nc2n1 + COc1cccc2cc(-c3nc([C@H]4CC[C@H](C(=O)O)CC4)n4ncnc(N)c34)[nH]c12 [OSI-027] (partner 0.5 µM)

Reply:
1. 0.324
2. 0.949
3. 0.309

###

Answer each item with its documented relative viability.
System: NCI-H2170
assay text: relative viability (nuclei count vs DMSO), 5 days (fraction); higher = more cells survive
run parameters: first compound 0.08 µM

Use these answered entries as a reference point.
compound	relative viability
O=c1cc(-c2cccc3c2Sc2ccccc2S3)oc(N2CCOCC2)c1 + CC(=O)c1c(C)c2cnc(Nc3ccc(N4CCNCC4)cn3)nc2n(C2CCCC2)c1=O [Palbociclib] (partner 0.5 µM)	0.45
COc1nc(C)cnc1NS(=O)(=O)c1cccnc1-c1ccc(-c2nnco2)cc1 [Zibotentan] + CC(=O)Nc1cccc(-n2c(=O)n(C3CC3)c(=O)c3c(Nc4ccc(I)cc4F)n(C)c(=O)c(C)c32)c1 [Trametinib] (partner 0.02 µM)	0.966
O=c1cc(-c2cccc3c2Sc2ccccc2S3)oc(N2CCOCC2)c1 + N=C(N)NC(=N)NCCc1ccccc1 [Phenformin] (partner 250 µM)	0.427

Batch: relative viability for all items listed.
1. O=c1cc(-c2cccc3c2Sc2ccccc2S3)oc(N2CCOCC2)c1 + CC1(C)CCC(c2ccc(Cl)cc2)=C(CN2CCN(c3ccc(C(=O)NS(=O)(=O)c4ccc(N[C@H](CCN5CCOCC5)CSc5ccccc5)c(S(=O)(=O)C(F)(F)F)c4)cc3)CC2)C1 [Navitoclax] (partner 0.5 µM)
2. COc1nc(C)cnc1NS(=O)(=O)c1cccnc1-c1ccc(-c2nnco2)cc1 [Zibotentan] + CS(=O)(=O)CCNCc1ccc(-c2ccc3ncnc(Nc4ccc(OCc5cccc(F)c5)c(Cl)c4)c3c2)o1 [Lapatinib] (partner 2 µM)

Reply:
1. 0.693
2. 0.27

###

Test system: RERF-LC-KJ
assay text: relative viability (nuclei count vs DMSO), 5 days (fraction); higher = more cells survive
run parameters: first compound 0.01 µM
Criterion: relative viability strictly less than 0.8. Met: fulfilled. Not met: not fulfilled.

compound	group
O=c1cc(N2CCOCC2)oc2c(-c3cccc4c3sc3ccccc34)cccc12 + CS(=O)(=O)CCNCc1ccc(-c2ccc3ncnc(Nc4ccc(OCc5cccc(F)c5)c(Cl)c4)c3c2)o1 [Lapatinib] (partner 2 µM)	fulfilled
CCN(CC)CCCCNc1ncc2cc(-c3cc(OC)cc(OC)c3)c(NC(=O)NC(C)(C)C)nc2n1 + CS(=O)(=O)CCNCc1ccc(-c2ccc3ncnc(Nc4ccc(OCc5cccc(F)c5)c(Cl)c4)c3c2)o1 [Lapatinib] (partner 2 µM)	not fulfilled
CCN(CC)CCCCNc1ncc2cc(-c3cc(OC)cc(OC)c3)c(NC(=O)NC(C)(C)C)nc2n1 + CC(=O)c1c(C)c2cnc(Nc3ccc(N4CCNCC4)cn3)nc2n(C2CCCC2)c1=O [Palbociclib] (partner 0.5 µM)	not fulfilled
CCN(CC)CCCCNc1ncc2cc(-c3cc(OC)cc(OC)c3)c(NC(=O)NC(C)(C)C)nc2n1 + O=C(c1cc(Cc2n[nH]c(=O)c3ccccc23)ccc1F)N1CCN(C(=O)C2CC2)CC1 [Olaparib] (partner 8 µM)	not fulfilled
O=c1cc(N2CCOCC2)oc2c(-c3cccc4c3sc3ccccc34)cccc12 + COc1cc2c(Oc3ccc(NC(=O)C4(C(=O)Nc5ccc(F)cc5)CC4)cc3F)ccnc2cc1OCCCN1CCOCC1 [Foretinib] (partner 0.25 µM)	not fulfilled

Task item: In the record for CCN(CC)CCCCNc1ncc2cc(-c3cc(OC)cc(OC)c3)c(NC(=O)NC(C)(C)C)nc2n1 + Cc1cc(Nc2cc(N3CCN(C)CC3)nc(Sc3ccc(NC(=O)C4CC4)cc3)n2)n[nH]1 [Tozasertib] (partner 0.1 µM) , is relative viability less than 0.8?
Reply: fulfilled

Task item: Is the reported relative viability for CCN(CC)CCCCNc1ncc2cc(-c3cc(OC)cc(OC)c3)c(NC(=O)NC(C)(C)C)nc2n1 + NC(=O)Nc1cc(-c2cccc(F)c2)sc1C(=O)N[C@H]1CCCNC1 [AZD7762] (partner 0.2 µM) strictly below 0.8?
Reply: not fulfilled

All values here come from the supplement of paper PMC10307832.
